# tested system: human TYK2 catalytic kinase (JH1) domain (Homo sapiens (Human), UniProt P29597)
# Sequence (P29597 897-1176): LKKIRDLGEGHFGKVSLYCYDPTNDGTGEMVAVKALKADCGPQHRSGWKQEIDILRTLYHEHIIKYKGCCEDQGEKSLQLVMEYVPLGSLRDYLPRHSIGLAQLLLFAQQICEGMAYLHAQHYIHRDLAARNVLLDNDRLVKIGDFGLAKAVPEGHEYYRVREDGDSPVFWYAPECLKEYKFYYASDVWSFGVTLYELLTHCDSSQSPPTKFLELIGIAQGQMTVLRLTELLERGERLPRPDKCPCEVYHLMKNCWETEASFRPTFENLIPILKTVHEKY
# measurement notes: ADP-Glo Kinase Assay, recombinant TYK2 catalytic kinase (JH1) domain
# Assay type: biochemical
# condition summary: recombinant JH1 domain 2 nM, 10 μM ATP, JAK3-974 peptide, mean, read-out: TYK2 biochem IC50 (nM) Mean
property: IC50

Examples with answers:
compound | IC50
C[C@]1(F)C[C@@H](C(=O)N2C3CCC2CN(c2ncnn4cc(-c5cnn(C(F)F)c5)cc24)C3)C1 | 476 nM
Cn1cc(-c2cc3c(N4CC5CCC(C4)N5C(=O)[C@H]4C[C@H]4F)ncnn3c2)cn1 (single isomer, unassigned) [Example 79] | 626 nM
Cc1ccc(-c2nc3c(N4CC5CCC(C4)N5C(=O)[C@@H]4C[C@H]4F)ccnc3[nH]2)cn1 | 4.6 nM

Quick batch: IC50 for everything below.
1. O=C(C1CC1)N1C2CCC1CN(c1ncnn3cc(-c4ccnc(Cl)c4)cc13)C2
2. COc1nn(C)cc1-c1cc2c(N3CC4CCC(C3)N4C(=O)[C@@H]3C[C@H]3F)ccnn2c1
3. O=C([C@H]1C[C@@H]1CO)N1C2CCC1CN(c1ncnn3cc(-c4cnn(C(F)F)c4)cc13)C2 (racemic) [Example 38]
4. O=C(C1CC1)N1C2CCC1CN(c1ncnn3cc(-c4ccccc4F)cc13)C2

["547 nM", "1.4 nM", "326 nM", "704 nM"]

---

# tested system: human TYK2 catalytic kinase (JH1) domain (Homo sapiens (Human))
# measurement notes: ADP-Glo Kinase Assay, recombinant TYK2 catalytic kinase (JH1) domain
# Assay type: biochemical
# condition summary: recombinant JH1 domain 2 nM, 10 μM ATP, JAK3-974 peptide, mean, read-out: TYK2 biochem IC50 (nM) Mean
Counter-ions that a name gives are not always drawn.
Could you please report measured IC50 for the items listed next?

Examples with answers:
molecule | tested system | IC50
CC(C)(F)C(=O)N1C2CCC1CN(c1ncnn3cc(-c4cnn(C(F)F)c4)cc13)C2 [Example 32, trifluoroacetate] | human TYK2 catalytic kinase (JH1) domain (Homo sapiens (Human)) | 242 nM
O=C([C@@H]1C[C@H]1F)N1C2CCC1CN(c1ccnc3[nH]c(-c4ccc(C(F)F)nc4)nc13)C2 [Example 206] | human TYK2 catalytic kinase (JH1) domain (Homo sapiens (Human)) | 6.8 nM
O=C(C1CC1)N1C2CCC1CN(c1ncnn3cc(-c4ccccc4)cc13)C2 [Example 177] | human TYK2 catalytic kinase (JH1) domain (Homo sapiens (Human)) | 300 nM

Turning to the following molecule.
Entry Cn1cc(-c2cc3c(N4CC5CCC(C4)N5C(=O)C4(F)CC4)ccnc3[nH]2)cn1 [Example 240] has what IC50? 4.4 nM

---

# tested system: human JAK3 catalytic kinase (JH1) domain (Homo sapiens (Human), UniProt P52333)
# Sequence (P52333 822-1111): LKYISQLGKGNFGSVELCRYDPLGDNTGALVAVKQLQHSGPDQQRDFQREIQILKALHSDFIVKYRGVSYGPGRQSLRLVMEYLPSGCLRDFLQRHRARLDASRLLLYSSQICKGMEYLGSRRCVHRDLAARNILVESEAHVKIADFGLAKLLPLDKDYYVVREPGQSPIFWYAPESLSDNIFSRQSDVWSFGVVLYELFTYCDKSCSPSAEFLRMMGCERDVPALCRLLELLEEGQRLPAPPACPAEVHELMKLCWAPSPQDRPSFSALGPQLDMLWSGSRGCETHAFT
# measurement notes: ADP-Glo Kinase Assay, recombinant JAK3 catalytic kinase (JH1) domain
# Type: biochemical
# condition summary: recombinant JH1 domain 0.3 nM, 4 μM ATP, JAK3-974 peptide, mean, read-out: JAK3 biochem IC50 (nM) Mean
property: IC50 (nM)
One number for each entry, in nM.

Examples with answers:
molecule | unit info | IC50
Cc1cc(-c2cc3c(N4CC5CCC(C4)N5C(=O)C4CC4)ncnn3c2)on1 | nM | 10000
O=C(C1CC1)N1C2CCC1CN(c1ncnn3cc(-c4ccnc(Cl)c4)cc13)C2 | nM | 10000
O=C(C1CCC1)N1C2CCC1CN(c1ncnn3cc(-c4cnn(C(F)F)c4)cc13)C2 | nM | 7870
COc1cncc(-c2cc3c(N4CC5CCC(C4)N5C(=O)[C@@H]4C[C@H]4F)ccnn3c2)n1 | nM | 5510
Cn1cc(-c2cn3ncc(F)c(N4CC5CCC(C4)N5C(=O)[C@@H]4C[C@H]4F)c3n2)cn1 (stereo in doubt) | nM | 285

Quick batch: IC50 for everything below.
1. Cn1ccc(-c2cc3c(N4CC5CCC(C4)N5C(=O)[C@@H]4C[C@H]4F)ccnn3c2)cc1=O
2. Cn1cc(-c2cc3c(N4CC5CCC(C4)N5C(=O)C4(F)CC4)ccnc3[nH]2)c(F)n1
3. O=C(C1C(F)(F)C12CC2)N1C2CCC1CN(c1ncnn3cc(-c4cnn(C(F)F)c4)cc13)C2 (centres unmarked)
4. Cc1ccc(-c2cc3c(N4CC5CCC(C4)N5C(=O)[C@@H]4C[C@H]4F)ccnn3c2)cn1
5. O=C(C1CC1)N1C2CCC1CN(c1ccnc3[nH]c(-c4cnn(C(F)F)c4)nc13)C2
6. O=C([C@@H]1CC1(F)F)N1C2CCC1CN(c1ncnn3cc(-c4cnn(C(F)F)c4)cc13)C2
7. CCn1ncc(-c2cc3c(N4CC5CCC(C4)N5C(=O)C4CC4)ncnn3c2)c1F
8. O=C([C@@H]1C[C@H]1F)N1C2CCC1CN(c1ccnn3cc(-c4ccnc(N5CC(F)(F)C5)c4)cc13)C2

[322, 27, 3220, 672, 346, 6160, 1230, 10000]

---

# tested system: human JAK2 catalytic kinase (JH1) domain (Homo sapiens (Human), UniProt O60674)
# Sequence (O60674 849-1124): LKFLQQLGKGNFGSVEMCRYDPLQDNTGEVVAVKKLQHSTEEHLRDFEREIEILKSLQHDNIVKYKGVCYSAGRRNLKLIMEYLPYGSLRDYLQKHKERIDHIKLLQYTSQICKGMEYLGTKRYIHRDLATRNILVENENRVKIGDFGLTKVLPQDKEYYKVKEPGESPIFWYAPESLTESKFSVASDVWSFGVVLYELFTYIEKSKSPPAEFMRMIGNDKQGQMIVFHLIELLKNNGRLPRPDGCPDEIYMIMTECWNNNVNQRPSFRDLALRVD
# measurement notes: ADP-Glo Kinase Assay, recombinant JAK2 catalytic kinase (JH1) domain
# Type: biochemical
# condition summary: recombinant JH1 domain 0.2 nM, 15 μM ATP, JAK3-974 peptide, mean, read-out: JAK2 biochem IC50 (nM) Mean
property: IC50

Examples with answers:
molecule | result
Cn1cc(-c2cc3c(N4CC5CCC(C4)N5C(=O)[C@@H]4C[C@H]4F)ncnn3c2)ccc1=O | 902 nM
Cn1cc(-c2cn3ncc(F)c(N4CC5CCC(C4)N5C(=O)[C@@H]4C[C@H]4F)c3n2)cn1 (stereo in doubt) | 97 nM
Cn1cc(-c2cc3c(N4CC5CCC(C4)N5C(=O)[C@@H]4C[C@H]4F)ccnn3c2)ccc1=O | 54 nM
Cn1cc(-c2cc3c(N4CC5CCC(C4)N5C(=O)C4(C)CCC4)ncnn3c2)cn1 | 9180 nM
Cn1cc(-c2cc3c(N4CC5CCC(C4)N5C(=O)CC#N)ncnn3c2)cn1 | 8710 nM

Quick batch: IC50 for everything below.
1. Cn1ncc(-c2cc3c(N4CC5CCC(C4)N5C(=O)C4(F)CC4)ccnc3[nH]2)c1F
2. COc1ncnc(-c2cc3c(N4CC5CCC(C4)N5C(=O)[C@@H]4C[C@H]4F)ccnn3c2)c1F

1. 690 nM
2. 1680 nM

Quick batch: IC50 for everything below.
1. Cn1cc(-c2cc3c(N4CC5CCC(C4)N5S(=O)(=O)C4CC4)ncnc3[nH]2)cn1
2. O=C([C@@H]1C[C@H]1F)N1C2CCC1CN(c1ccnc3[nH]c(-c4ccnnc4)nc13)C2
3. Cn1cc(-c2cc3c(N4CC5CCC(C4)N5C(=O)C4CC4)ncnn3c2)nn1

1. 601 nM
2. 150 nM
3. 9850 nM

---

# tested system: human JAK3 catalytic kinase (JH1) domain (Homo sapiens (Human), UniProt P52333)
# measurement notes: ADP-Glo Kinase Assay, recombinant JAK3 catalytic kinase (JH1) domain
# Format: biochemical
# condition summary: recombinant JH1 domain 0.3 nM, 4 μM ATP, JAK3-974 peptide, mean, read-out: JAK3 biochem IC50 (nM) Mean
property: IC50

Examples with answers:
smi | IC50
O=C([C@@H]1C[C@H]1F)N1C2CCC1CN(c1ncnc3[nH]c(-c4ccnnc4)cc13)C2 | 3200 nM
O=C(C1CC1)N1C2CCC1CN(c1ncnn3cc(-c4cnn([C@@H]5CCOC5)c4)cc13)C2 | 3850 nM
O=C([C@H]1C[C@H](C(F)(F)F)C1)N1C2CCC1CN(c1ncnn3cc(-c4cnn(C(F)F)c4)cc13)C2 | 10000 nM
N#Cc1ccc(-c2cc3c(N4CC5CCC(C4)N5C(=O)[C@@H]4C[C@H]4F)ccnn3c2)cn1 | 913 nM

Quick batch: IC50 for everything below.
1. Cc1cc(-c2cc3c(N4CC5CCC(C4)N5C(=O)[C@@H]4C[C@H]4F)ncnc3[nH]2)ccn1
2. O=C(C1CC1)N1C2CCC1CN(c1ccnn3cc(-c4cnn(C(F)F)c4)cc13)C2

1: 742 nM; 2: 1040 nM

Quick batch: IC50 for everything below.
1. Cn1cc(-c2cc3c(N4CC5CCC(C4)N5C(=O)[C@@H]4C[C@H]4F)ccnn3c2)c(F)n1
2. Cn1cc(-c2cc3c(N4CC5CCC(C4)N5C(=O)C4CC4)ccnn3c2)cn1
3. O=C(N1C2CCC1CN(c1ncnn3cc(-c4cnn(C(F)F)c4)cc13)C2)C(F)(F)F

1: 502 nM; 2: 888 nM; 3: 5090 nM

---

# tested system: human JAK1 catalytic kinase (JH1) domain (Homo sapiens (Human))
# Sequence (P23458 875-1153): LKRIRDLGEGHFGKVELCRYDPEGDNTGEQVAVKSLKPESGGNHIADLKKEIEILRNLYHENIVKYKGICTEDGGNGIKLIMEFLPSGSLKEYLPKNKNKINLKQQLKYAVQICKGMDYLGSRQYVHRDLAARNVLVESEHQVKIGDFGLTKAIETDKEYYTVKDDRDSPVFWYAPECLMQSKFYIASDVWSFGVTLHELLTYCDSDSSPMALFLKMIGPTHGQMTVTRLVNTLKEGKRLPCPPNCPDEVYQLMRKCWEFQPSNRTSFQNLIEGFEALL
# measurement notes: ADP-Glo Kinase Assay, recombinant JAK1 catalytic kinase (JH1) domain
# Type: biochemical
# condition summary: recombinant JH1 domain 4 nM, 35 μM ATP, JAK3-342 peptide, mean, read-out: JAK1 biochem IC50 (nM) Mean
property: IC50
# number then unit; no other words

Quick batch: IC50 for everything below.
1. CC(C)n1cc(-c2cc3c(N4CC5CCC(C4)N5C(=O)C4CC4)ncnn3c2)cn1
2. CN1CCOC(c2nc3c(N4CC5CCC(C4)N5C(=O)[C@@H]4C[C@H]4F)ccnc3[nH]2)C1 (some centres unmarked)
3. O=C([C@@H]1CC1(F)F)N1C2CCC1CN(c1ccnn3cc(C4CC4)cc13)C2
4. O=C([C@@H]1C[C@H]1F)N1C2CCC1CN(c1ccnn3cc(-c4ccc(C(F)(F)F)nc4)cc13)C2

731 nM
2940 nM
8060 nM
67 nM

Provenance of the data: patent US20240360157A1
